# assay name: Plasma concentration in FVB mouse at 30 mg/kg, administered through oral gavage as single dose measured after 48 hrs post dose by LC-MS analysis
# Format: ADME, organism-based
outcome measure: concentration at 48 h

Example cases with answers are listed next.
INSERT INTO results (compound, outcome_measure, result) VALUES
  ('NCCOc1ccc([C@H]2CC[C@]3(CC2)OOC2(O3)C3CC4CC(C3)CC2C4)cc1 (stereo partly drawn)', 'concentration at 48 h', '4.73 nM'),
  ('CC1(C)CC(O)(COc2ccc([C@H]3CC[C@]4(CC3)OOC3(O4)C4CC5CC(C4)CC3C5)cc2)CC(C)(C)N1 (stereo partly drawn)', 'concentration at 48 h', '122 nM');

[ask] Need concentration at 48 h of CC(C)(N)CCOc1ccc([C@H]2CC[C@]3(CC2)OOC2(O3)C3CC4CC(C3)CC2C4)cc1 (stereo partly drawn) , thanks.
[reply] 89.2 nM
